Hello, the source for this data is paper PMC8602628, in case you need it.

Measured dissociation temperature of the oligomer values are reported for all entries that follow.
target: the molecule itself; test: CD thermal transition; far-UV CD at 218 nm, 12.5 µM protein in PBS, 20 to 90 °C at 1 K/min; the lower transition is taken as the disassembly of the oligomer

Examples with their reported dissociation temperature of the oligomer follow.
Returns the measured dissociation temperature of the oligomer for the input protein. Input: Hsp26 T163E (natural protein, S. cerevisiae, Hsp26 of S. cerevisiae, phospho-mimetic mutant in pQE60::HSP26; source: E. coli HB101, purified (Q-Sepharose, Superdex200, Resource Q)) MGSFNSPFFDFFDNINNEVDAFNRLLGEGGLRGYAPRRQLANTPAKDSTGKEVARPNNYAGALYDPRDETLDDWFDNDLSLFPSGFGFPRSVAVPVDILDHDNNYELKVVVPGVKSKKDIDIEYHQNKNQILVSGEIPSTLNEESKDKVKVKESSSGKFKRVIELPDYPGVDADNIKADYANGVLTLTVPKLKPQKDGKNHVKKIEVSSQESWGN
34.6 °C

Returns the measured dissociation temperature of the oligomer for the input protein. Input: Hsp26 wild-type (WT) protein, recombinant (natural protein, S. cerevisiae, Hsp26, small heat shock protein of S. cerevisiae; HSP26 cloned into pQE60 with NcoI and HindIII, which adds a glycine after the start methionine; Forms an ensemble of oligomers, predominantly a 40mer; also called Hsp26 WT; source: E. coli HB101, purified (Q-Sepharose, Superdex200, Resource Q)) MGSFNSPFFDFFDNINNEVDAFNRLLGEGGLRGYAPRRQLANTPAKDSTGKEVARPNNYAGALYDPRDETLDDWFDNDLSLFPSGFGFPRSVAVPVDILDHDNNYELKVVVPGVKSKKDIDIEYHQNKNQILVSGEIPSTLNEESKDKVKVKESSSGKFKRVITLPDYPGVDADNIKADYANGVLTLTVPKLKPQKDGKNHVKKIEVSSQESWGN
42.1 °C

Now consider the entry below.
Returns the measured dissociation temperature of the oligomer for the input protein. Input: Hsp26 T48E (natural protein, S. cerevisiae, Hsp26 of S. cerevisiae, phospho-mimetic mutant in pQE60::HSP26; source: E. coli HB101, purified (Q-Sepharose, Superdex200, Resource Q)) MGSFNSPFFDFFDNINNEVDAFNRLLGEGGLRGYAPRRQLANTPAKDSEGKEVARPNNYAGALYDPRDETLDDWFDNDLSLFPSGFGFPRSVAVPVDILDHDNNYELKVVVPGVKSKKDIDIEYHQNKNQILVSGEIPSTLNEESKDKVKVKESSSGKFKRVITLPDYPGVDADNIKADYANGVLTLTVPKLKPQKDGKNHVKKIEVSSQESWGN
< 40 °C
